Origin of values: patent US11638713B2

Test: in vitro
Details: human, CC50 (nM)
measured_property: CC50 (nM)
# unit: nM | format: bare number

# compound, measured_property, observed_measurement
measured = [
    ("COc1cc2c(OC3OC[C@@H](OC(C)=O)[C@H](OC(C)=O)[C@H]3OC(C)=O)c3c(c(-c4ccc5c(c4)OCO5)c2cc1OC)C(=O)OC3 (stereo partly drawn) [Compound 25a, Peracetylated 7β-D-xylosyloxydiphyllin]", "CC50", 3080),
]

Form field CC50, entry COc1cc2c(OC3O[C@@H]4COC(C)(C)O[C@@H]4[C@H](O)[C@H]3O)c3c(c(-c4ccc5c(c4)OCO5)c2cc1OC)C(=O)OC3 (stereo partly drawn) [Compound 32c] : 52.7

Form field CC50, entry COc1cc2c(OC3O[C@H](CO)[C@H](O)[C@@H]4OC(C)(C)O[C@@H]34)c3c(c(-c4ccc5c(c4)OCO5)c2cc1OC)C(=O)OC3 (stereo partly drawn) [Compound 32d] : 52.7

Form field CC50, entry COc1cc2c(OC3O[C@H](C)[C@@H](O)[C@H](OC(=O)c4ccc(N(C)C)cc4)[C@H]3O)c3c(c(-c4ccc5c(c4)OCO5)c2cc1OC)C(=O)OC3 (stereo partly drawn) [Compound 31e] : 17.7

Form field CC50, entry COc1ccc(C(=O)Oc2c3c(c(-c4ccc5c(c4)OCO5)c4cc(OC)c(OC)cc24)C(=O)OC3)cc1 [Compound 17h] : 1460

Form field CC50, entry CNC(=O)COc1c2c(c(-c3ccc4c(c3)OCO4)c3cc(OC)c(OC)cc13)C(=O)OC2 [Compound 14b] : 2120

Form field CC50, entry CCc1c2c(c(-c3ccc4c(c3)OCO4)c3cc(OC)c(OC)cc13)C(=O)OC2 [Compound 19g] : 196

Form field CC50, entry COc1cc2c(OC3O[C@H](C)[C@@H](O)[C@H](OC(C)=O)[C@H]3O)c3c(c(-c4ccc5c(c4)OCO5)c2cc1OC)C(=O)OC3 (stereo partly drawn) [Compound 27bb, 3″-Acetyl-7-O-β-D-patentiflorin A] : 589

Form field CC50, entry COc1cc2c(C3=CCN(C(=O)OC(C)(C)C)CC3)c3c(c(-c4ccc5c(c4)OCO5)c2cc1OC)C(=O)OC3 [Compound 19l] : 4190

Form field CC50, entry C=CCOC(=O)O[C@@H]1COC(Oc2c3c(c(-c4ccc5c(c4)OCO5)c4cc(OC)c(OC)cc24)C(=O)OC3)[C@H](O)[C@H]1OC(C)=O (stereo partly drawn) : 513

Form field CC50, entry COc1cc2c(-c3ccncc3)c3c(c(-c4ccc5c(c4)OCO5)c2cc1OC)C(=O)OC3 [Compound 19c] : 1670

---

Test: in vitro
Details: human, CC50 (nM)
measured_property: CC50 (nM)
# unit: nM | format: bare number

Below: 5 compounds and their reported CC50.
# compound, reading_unit, observed_measurement
rows = [
    ("CCCC(=O)O[C@H]1[C@H](O)[C@@H](C)OC(Oc2c3c(c(-c4ccc5c(c4)OCO5)c4cc(OC)c(OC)cc24)C(=O)OC3)[C@@H]1O (stereo partly drawn) [Compound 31c, 3″-O-butyryl-7-O-β-D-patentiflorin A]", "nM", 13.4),
    ("COc1cc2c(OC3O[C@H](C)[C@@H](O)[C@H](O)[C@H]3O)c3c(c(-c4ccc5c(c4)OCO5)c2cc1OC)C(=O)OC3 (some centres unmarked) [Compound 26b, Patentiflorin A]", "nM", 347),
    ("COc1cc2cc3c(c(-c4ccc5c(c4)OCO5)c2cc1OC)C(=O)OC3 [Compound 19d]", "nM", 5430),
    ("COc1cc2c(OC3O[C@H](C)[C@@H](O)[C@H](OC(C)=O)[C@H]3OC(C)=O)c3c(c(-c4ccc5c(c4)OCO5)c2cc1OC)C(=O)OC3 (stereo partly drawn) [Compound 27bf, 2″,3″-Diacetyl-7-O-β-D-patentiflorin A]", "nM", 308),
    ("COc1cc2c(-c3cccs3)c3c(c(-c4ccc5c(c4)OCO5)c2cc1OC)C(=O)OC3 [Compound 19h]", "nM", 2390),
]

Form field CC50, entry COc1cc2c(-c3cccnc3)c3c(c(-c4ccc5c(c4)OCO5)c2cc1OC)C(=O)OC3 [Compound 19i] : 38400

Form field CC50, entry C=CCOC(=O)O[C@@H]1COC(Oc2c3c(c(-c4ccc5c(c4)OCO5)c4cc(OC)c(OC)cc24)C(=O)OC3)[C@H](OC(=O)OCC=C)[C@H]1O (some centres unmarked) [Compound 29a] : 438

Form field CC50, entry COc1cc2c(C#C[Si](C)(C)C)c3c(c(-c4ccc5c(c4)OCO5)c2cc1OC)C(=O)OC3 [Compound 19o] : 1220

Form field CC50, entry COc1cc2c(OC3O[C@H](C)[C@@H](O)[C@H](OC(=O)CC#N)[C@H]3O)c3c(c(-c4ccc5c(c4)OCO5)c2cc1OC)C(=O)OC3 (stereo partly drawn) [Compound 31j, 3″-O-cyanoacetyl-7-O-β-D-patentiflorin A] : 6.68

Form field CC50, entry COc1cc2c(OC3OC[C@@H](OC(C)=O)[C@H](O)[C@H]3OC(C)=O)c3c(c(-c4ccc5c(c4)OCO5)c2cc1OC)C(=O)OC3 (stereo partly drawn) [Compound 27ae, 2″,4″-Diacetyl-7-O-β-D-xylosyldiphyllin] : 2590

Form field CC50, entry COc1cc2c(OC3O[C@H](C)[C@@H](O)[C@H](OC(=O)c4ccc(Cl)cc4)[C@H]3O)c3c(c(-c4ccc5c(c4)OCO5)c2cc1OC)C(=O)OC3 (some centres unmarked) [Compound 31h] : 336

Form field CC50, entry C#Cc1c2c(c(-c3ccc4c(c3)OCO4)c3cc(OC)c(OC)cc13)C(=O)OC2 : 207

Form field CC50, entry COc1cc2c(OC3O[C@H](CO)[C@@H]4OC(C)(C)O[C@@H]4[C@H]3O)c3c(c(-c4ccc5c(c4)OCO5)c2cc1OC)C(=O)OC3 (some centres unmarked) [Compound 32b] : 52.7

Form field CC50, entry COc1cc2c(OC)c3c(c(-c4ccc5c(c4)OCO5)c2cc1OC)C(=O)OC3 [Compound 17b] : 2140

---

Test: in vitro
Conditions: human, CC50 (nM)
In plain terms, low CC50, meaning strictly below 900 nM, gives yes, and everything else gives no.

Worked set:
# molecule, label_class
rows = [
    ("COc1cc2c(OC3OC[C@@H](O)[C@H](OC(C)=O)[C@H]3OC(C)=O)c3c(c(-c4ccc5c(c4)OCO5)c2cc1OC)C(=O)OC3 (stereo partly drawn) [Compound 27af, 2″,3″-Diacetyl-7-O-β-D-xylosyldiphyllin]", "no"),
    ("COc1cc2c(N)c3c(c(-c4ccc5c(c4)OCO5)c2cc1OC)C(=O)OC3", "yes"),
    ("COc1cc2c(Nc3ccccc3)c3c(c(-c4ccc5c(c4)OCO5)c2cc1OC)C(=O)OC3 [Compound 19f]", "no"),
    ("COc1cc2c(C)c3c(c(-c4ccc5c(c4)OCO5)c2cc1OC)C(=O)OC3 [Compound 19b]", "yes"),
    ("CCOC(=O)COc1c2c(c(-c3ccc4c(c3)OCO4)c3cc(OC)c(OC)cc13)C(=O)OC2 [Compound 12b]", "no"),
]

For COc1cc2c(OCC(N)=O)c3c(c(-c4ccc5c(c4)OCO5)c2cc1OC)C(=O)OC3 [Compound 14a] , is the recorded CC50 below the cut-off of 900 nM?
yes

---

Test system: A549 cells
Assay: cells
Details: Homo sapiens, A549, read-out: % Inhibition against A549 cells
Overview of reported inhibition at 0.5 µg/mL across a group of compounds:
# unit: % | format: bare number

Below: 3 compounds and their reported inhibition at 0.5 µg/mL.
# compound, measured_property, reading_unit, observed_measurement
data = [
    ("COc1cc2c(OC3O[C@@H]4COC(C)(C)O[C@@H]4[C@H](O)[C@H]3O)c3c(c(-c4ccc5c(c4)OCO5)c2cc1OC)C(=O)OC3 (stereo partly shown) [Compound 32c]", "inhibition at 0.5 µg/mL", "%", 39.7),
    ("COc1cc2c(OC3O[C@H](CO)[C@@H](O)[C@H](O)[C@H]3O)c3c(c(-c4ccc5c(c4)OCO5)c2cc1OC)C(=O)OC3 (stereo partly drawn) [Compound 26f, 7-O-β-D-glucopyranosyldiphyllin]", "inhibition at 0.5 µg/mL", "%", 18.2),
    ("COc1cc2c(OC3O[C@H](CO)[C@H](O)[C@@H]4OC(C)(C)O[C@@H]34)c3c(c(-c4ccc5c(c4)OCO5)c2cc1OC)C(=O)OC3 (stereo partly shown) [Compound 32d]", "inhibition at 0.5 µg/mL", "%", 24.3),
]

# input for lookup
Form field inhibition at 0.5 µg/mL, entry CN(C)CCOc1ccc(/C(=C(/CCCl)c2ccccc2)c2ccccc2)cc1 [Toremifene, toremifene, reference compound] : -15.1
